Can you tell me IC50 for the items I'm about to list?

Q) Request - read-out IC50 | tested on Cbl-b (Homo sapiens) | molecule CC(C)Oc1cc(-c2c(F)cc(C#N)cc2C(=O)N2CC(F)(F)C2)cc(NC(=O)c2cc(CN[C@@H](C)C3CCC3)cn(C)c2=O)n1
A) < 0.1 µM

Q) Enter reported IC50 observed with Cbl-b (Homo sapiens) for CCOc1cc(-c2c(F)cc(C#N)cc2C(=O)N2CC(F)(F)C2)cc(NC(=O)c2cc(CNC[C@H](C)OC)cn(C)c2=O)n1
Sequence (Q13191 whole entry, species assumed): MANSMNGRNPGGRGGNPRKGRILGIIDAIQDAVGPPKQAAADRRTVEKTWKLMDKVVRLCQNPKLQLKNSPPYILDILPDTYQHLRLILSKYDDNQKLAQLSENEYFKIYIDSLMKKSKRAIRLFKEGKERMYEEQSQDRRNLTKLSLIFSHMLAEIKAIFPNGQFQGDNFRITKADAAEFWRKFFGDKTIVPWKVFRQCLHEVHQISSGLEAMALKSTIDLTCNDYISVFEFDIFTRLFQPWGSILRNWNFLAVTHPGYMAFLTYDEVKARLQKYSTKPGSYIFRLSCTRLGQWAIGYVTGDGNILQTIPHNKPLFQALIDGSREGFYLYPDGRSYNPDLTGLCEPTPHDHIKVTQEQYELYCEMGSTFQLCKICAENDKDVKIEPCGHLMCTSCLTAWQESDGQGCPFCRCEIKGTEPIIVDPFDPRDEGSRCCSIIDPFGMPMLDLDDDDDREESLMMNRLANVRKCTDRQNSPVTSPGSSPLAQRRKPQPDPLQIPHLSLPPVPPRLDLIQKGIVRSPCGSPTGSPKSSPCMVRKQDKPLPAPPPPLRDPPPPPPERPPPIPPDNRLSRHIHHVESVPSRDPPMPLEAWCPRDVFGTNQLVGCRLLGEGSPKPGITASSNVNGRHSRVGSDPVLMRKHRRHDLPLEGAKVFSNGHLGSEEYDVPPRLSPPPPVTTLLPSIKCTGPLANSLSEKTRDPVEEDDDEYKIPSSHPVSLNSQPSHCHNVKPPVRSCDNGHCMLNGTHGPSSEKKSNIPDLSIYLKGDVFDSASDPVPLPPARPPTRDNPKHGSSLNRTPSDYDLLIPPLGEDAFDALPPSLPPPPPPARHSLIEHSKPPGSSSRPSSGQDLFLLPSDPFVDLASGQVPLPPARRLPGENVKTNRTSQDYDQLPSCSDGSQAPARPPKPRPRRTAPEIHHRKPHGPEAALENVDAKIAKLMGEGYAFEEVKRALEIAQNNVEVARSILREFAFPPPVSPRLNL
A) < 0.1 µM

Q) What measured IC50 is associated with Cn1cc(C#N)nc1-c1cc(C#N)ccc1-c1cc(NC(=O)c2cc(CNC3(C)CCC3)cn(C3CC3)c2=O)nc(C2CC2)c1 on Cbl-b (Homo sapiens)?
A) < 0.1 µM
